# assay system: Transient receptor potential cation channel subfamily A member 1 (Homo sapiens)
# Sequence (O75762 whole entry): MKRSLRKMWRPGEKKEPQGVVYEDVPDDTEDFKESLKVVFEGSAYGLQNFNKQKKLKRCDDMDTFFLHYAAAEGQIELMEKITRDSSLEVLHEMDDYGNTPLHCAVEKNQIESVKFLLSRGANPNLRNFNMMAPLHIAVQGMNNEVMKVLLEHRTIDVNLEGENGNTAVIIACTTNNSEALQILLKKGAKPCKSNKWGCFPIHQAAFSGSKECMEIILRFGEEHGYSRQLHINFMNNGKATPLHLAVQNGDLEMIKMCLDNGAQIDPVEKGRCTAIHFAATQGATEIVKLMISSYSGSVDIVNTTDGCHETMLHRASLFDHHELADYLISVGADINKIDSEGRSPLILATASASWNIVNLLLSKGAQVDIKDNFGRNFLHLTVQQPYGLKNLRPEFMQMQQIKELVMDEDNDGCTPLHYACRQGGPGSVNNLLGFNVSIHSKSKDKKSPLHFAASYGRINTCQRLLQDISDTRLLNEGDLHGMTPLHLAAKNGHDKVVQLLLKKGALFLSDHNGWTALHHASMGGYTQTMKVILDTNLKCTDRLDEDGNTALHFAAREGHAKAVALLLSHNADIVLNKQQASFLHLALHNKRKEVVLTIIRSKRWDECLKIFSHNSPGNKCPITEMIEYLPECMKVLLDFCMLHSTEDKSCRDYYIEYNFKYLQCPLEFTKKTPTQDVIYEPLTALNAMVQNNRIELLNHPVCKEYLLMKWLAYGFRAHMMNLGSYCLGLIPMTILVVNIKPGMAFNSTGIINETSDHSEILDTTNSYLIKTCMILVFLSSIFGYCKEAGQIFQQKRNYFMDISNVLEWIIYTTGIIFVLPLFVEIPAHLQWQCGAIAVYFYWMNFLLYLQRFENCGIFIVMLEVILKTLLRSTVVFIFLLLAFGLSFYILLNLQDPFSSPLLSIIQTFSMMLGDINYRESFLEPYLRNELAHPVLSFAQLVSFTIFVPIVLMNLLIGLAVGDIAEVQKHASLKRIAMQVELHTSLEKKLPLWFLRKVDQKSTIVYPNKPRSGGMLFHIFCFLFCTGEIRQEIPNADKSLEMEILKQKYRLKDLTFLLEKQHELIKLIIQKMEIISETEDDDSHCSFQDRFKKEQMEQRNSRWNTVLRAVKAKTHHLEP
# assay comment: Activation of TRPA1 channel
assay endpoint: pEC50
Numbers only, as −log10 of the molar value.

INPUT: Give the measured pEC50 for CC(C)[C@@H]1CC[C@@H](C)C[C@H]1O
OUTPUT: 4.55
